Form: system (α-glucosidase enzyme (EC3.2.1.20) (Saccharomyces cerevisiae, UniProt P53341)), quantity (IC50), values below.
attribute-measured: IC50 (µM)

C/C(=N\N1C(=O)/C(=C/c2ccccc2O)NC1=S)c1ccccc1O [Compound 4a]; 57.1
COC(=O)CCN1C(=S)N(N=C(C)c2ccccc2O)C(=O)C1=Cc1ccccc1OC(C)=O [Compound 7a]; 38.2
COC(=O)CCN1C(=S)N(/N=C(\C)c2ccccc2O)C(=O)/C1=C/c1cc(Br)ccc1OC(C)=O [Compound 7b]; 21.8
COC(=O)CCN1C(=S)N(N=C(C)c2ccccc2O)C(=O)C1=Cc1ccccc1O [Compound 5a]; 11.6
COC(=O)CCN1C(=S)N(/N=C(\C)c2ccccc2O)C(=O)/C1=C/c1cc(Br)ccc1O [Compound 5b]; 21.3
